Origin of the recorded values: patent US20230348614A1

Biological target: T1, Recombinant soluble human CD138 extracellular domain (analyte in SPR) (human, UniProt P18827 23-254)
T1 construct: extracellular domain; also called recombinant CD138 (the antigen)
T1 sequence (looked up): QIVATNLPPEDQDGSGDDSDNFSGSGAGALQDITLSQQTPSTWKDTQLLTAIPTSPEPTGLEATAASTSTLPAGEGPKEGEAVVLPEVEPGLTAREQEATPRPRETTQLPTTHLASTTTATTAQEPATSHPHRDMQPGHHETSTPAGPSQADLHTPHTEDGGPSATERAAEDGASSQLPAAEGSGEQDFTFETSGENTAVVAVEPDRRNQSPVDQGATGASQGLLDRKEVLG
Experiment: SPR (Carterra LSA): antibody captured by anti-human IgG, CD138 as analyte, pH 6.0, 1:1 fit; pH 6.0, SPR
property.name: kon (M⁻¹ s⁻¹)
Give bare numbers, in M⁻¹ s⁻¹.

input: What measured kon goes with Antibody 29-0 (antibody, V domains shown, also called mAb 29-0) VH: EVQLVQSGAEVKKPGASVKVSCKASGYSFSSYYMHWVRQAPGQGLEWMGTIYPGASTTNYNQKFQGRVTMTVDTSTRTAYMELSSLRSEDTAVYYCADFVYWGQGTTVTVSS VL: DIVMTQTPLSLSVTPGQPASISCKSSKSLLYKDGKTYLNWFLQKPGQSPQLLIYVVSTRASGVPDRFSGSGSGTDFTLKISRVEAEDVGVYYCQQLVEYPYTFGQGTKLEIK ?
output: 150000
